Assay: Single ascending dose (SAD) pharmacokinetics in healthy volunteers
Assay type: in vivo, human
Details: human, plasma, po, 100 mg, single oral dose 100 mg, plasma; read-out: Cmax, mean (SD)
measure.name: Cmax
Please give the number followed by its unit.

Enquiry: Field request: Cmax | item: CC(=O)N1CCC(COc2cc(F)c3c(=O)[nH]c(CSC4CCOCC4)nc3c2)CC1 [RBN‐3143]
Return: 556 ng/mL

====

Test system: CYP3A4
Test: clinical
Conditions: human, in vivo, po, AUClast, GLSM, midazolam 2 mg single oral dose with RBN-3143 300 mg BID at steady state (day 16), N=12
measure.name: AUC(0-t) (ng·h/mL)
The answer is to be given in ng·h/mL; state only the numeric part.

Enquiry: Field request: AUC(0-t) | item: `Cc1ncc2n1-c1ccc(Cl)cc1C(c1ccccc1F)=NC2`
Return: 17.2
